Taken from patent US20040063745A1.

Reported pIC50 values for the following molecules.
system: TAG-β signalling (PAI-1 promoter, HepG2 cells); experiment: Assay 1: PAI-1 promoter luciferase reporter assay in HepG2 cells exposed to TAG-β; format: cell-based; settings: Homo sapiens, HepG2
pIC50: −log10 of the molar value.

Quick one: pIC50 of Nc1nc(-c2ccccn2)c(-c2ccc3ncccc3n2)s1 [Example 2] ?
≥ 5.30

Endpoint output: pIC50 of Nc1nc(-c2ccccn2)c(-c2ccnc3ccccc23)s1 [Example 1] . Value?
≥ 5.30

Requested field: pIC50. Item: Cc1cccc(-c2nc(N)sc2-c2ccc3ncccc3n2)n1 [Example 3]
≥ 5.30
